System: Saccharomyces cerevisiae
PROTOCOL_NOTES: protein stability index of tFT-peptide fusion in wild type (PSI (0-1 scale)); higher = more stable (slower turnover)
MEASUREMENT_CONTEXT: genetic background: wild type
Readings of protein stability index for the listed sequences

Sample answers from the record:
- SEQUENCE_DATA: "RVTRIDAIYFRI"
  protein stability index: 0.337
- SEQUENCE_DATA: "QDKRNHLIKLLN"
  protein stability index: 0.0816
- SEQUENCE_DATA: "RVTRLDAIYFRIG"
  protein stability index: 0.335
- SEQUENCE_DATA: "RLIQPLPWQFLN"
  protein stability index: 0.0707
- SEQUENCE_DATA: "PDKRNHIIKLLN"
  protein stability index: 0.132

Exam item: Please give the measured protein stability index for this sequence: PSLAAAFWRVVG
Marked response: 0.142

Exam item: Please give the measured protein stability index for this sequence: VRGAVGGWRFVG
Marked response: 0.142

Exam item: Please give the measured protein stability index for this sequence: CLVSLPILLHFR
Marked response: 0.286

----------
Test system: Saccharomyces cerevisiae
PROTOCOL_NOTES: protein stability index of tFT-peptide fusion (C-terminal peptide) (PSI (0-1 scale)); higher = more stable (slower turnover)
MEASUREMENT_CONTEXT: genetic background: cdc34-1; temperature: 37 C
MEASUREMENT_KIND: protein stability index
Hey, just send me the number, nothing else.

- SEQUENCE_DATA: "CGLLSALSCLVF"
  protein stability index: 0.507
- SEQUENCE_DATA: "LYVLNILSFVCV"
  protein stability index: 0.157
- SEQUENCE_DATA: "VEQLLYIKATNV"
  protein stability index: 0.689
- SEQUENCE_DATA: "ECLRLTTKKKIN"
  protein stability index: 0.581
- SEQUENCE_DATA: "AYSVIPSLALLP"
  protein stability index: 0.681
- SEQUENCE_DATA: "FFYRFQDLPRIC"
  protein stability index: 0.681
- SEQUENCE_DATA: "TFRVLAFFCRVV"
  protein stability index: 0.453
- SEQUENCE_DATA: "VRGWLAYLRWII"
  protein stability index: 0.58

Exam item: GET /values?readout=protein stability index&system=Saccharomyces cerevisiae&item= PPLPPPPASVPP
Marked response: 0.675

Exam item: GET /values?readout=protein stability index&system=Saccharomyces cerevisiae&item= WCFFFVGCCCFG
Marked response: 0.557

----------
Readings of protein stability index for the listed sequences
System: Saccharomyces cerevisiae
PROTOCOL_NOTES: protein stability index of tFT-peptide fusion (C-terminal peptide) (PSI (0-1 scale)); higher = more stable (slower turnover)
MEASUREMENT_CONTEXT: genetic background: wild type; temperature: 30 C

Exam item: Please give the measured protein stability index for this sequence: KITEKLGSPKTF
Marked response: 0.654

Exam item: Please give the measured protein stability index for this sequence: AGLVADGYWLRR
Marked response: 0.689

Exam item: Please give the measured protein stability index for this sequence: RSAVPSARASAD
Marked response: 0.643

Exam item: Please give the measured protein stability index for this sequence: PSPPAPPPSPLP
Marked response: 0.823

Exam item: Please give the measured protein stability index for this sequence: SVGHPAAVHHAR
Marked response: 0.675

----------
Test system: Saccharomyces cerevisiae
PROTOCOL_NOTES: protein stability index of tFT-peptide fusion (C-terminal peptide) (PSI (0-1 scale)); higher = more stable (slower turnover)
MEASUREMENT_CONTEXT: genetic background: wild type; temperature: 30 C
MEASUREMENT_KIND: protein stability index
Hey, just send me the number, nothing else.

Sample answers from the record:
- SEQUENCE_DATA: "VGRGCVLGVWEG"
  QUANTITATIVE_READOUT: 0.715
- SEQUENCE_DATA: "SIPLIMPLSDYV"
  QUANTITATIVE_READOUT: 0.675
- SEQUENCE_DATA: "SRSSASTKRNRW"
  QUANTITATIVE_READOUT: 0.701
- SEQUENCE_DATA: "LLFDIYSPTCPS"
  QUANTITATIVE_READOUT: 0.628
- SEQUENCE_DATA: "PVSSPSSPLPPL"
  QUANTITATIVE_READOUT: 0.678
- SEQUENCE_DATA: "RTVTKGTTFKVR"
  QUANTITATIVE_READOUT: 0.671
- SEQUENCE_DATA: "VDIKQDTTNLRL"
  QUANTITATIVE_READOUT: 0.718
- SEQUENCE_DATA: "NKNVGLKKSEKS"
  QUANTITATIVE_READOUT: 0.711

Exam item: Please give the measured protein stability index for this sequence: PYSCPPGCRSVL
Marked response: 0.689

Exam item: Please give the measured protein stability index for this sequence: TRHIGQYIHKIT
Marked response: 0.339

Exam item: Please give the measured protein stability index for this sequence: RRLRRALPPQLA
Marked response: 0.577

Exam item: Please give the measured protein stability index for this sequence: NTSLLMAWPIPP
Marked response: 0.556

Exam item: Please give the measured protein stability index for this sequence: QTLKKRRNRSRG
Marked response: 0.684

Exam item: Please give the measured protein stability index for this sequence: RPPPPHPSPLPL
Marked response: 0.713

Exam item: Please give the measured protein stability index for this sequence: GKERIYVYGWSK
Marked response: 0.686

Exam item: Please give the measured protein stability index for this sequence: GFVISSCRLFIL
Marked response: 0.337

Exam item: Please give the measured protein stability index for this sequence: LCDLGLMLFPFV
Marked response: 0.666

Exam item: Please give the measured protein stability index for this sequence: LLPPAPLPPSLG
Marked response: 0.722

Exam item: Please give the measured protein stability index for this sequence: RVGPLLLTAGPR
Marked response: 0.644
